# Assay Summary: Determination of the microsomal half-life, human liver microsomes
# Assay Conditions: human, liver microsomes, pH 7.4
Where a name gives a salt, the structure may show the parent alone.
Quantity Name: microsomal CLint at 0.5 μM

Recorded results for 4 molecules are shown here.
* O=C1c2c(cccc2N2C[C@@H]3CCCNC[C@H]3C2)CN1CCc1ccc2ccccc2n1 [Example 317, trifluoroacetate] | 100 to 220 µL/min/mg
* Cc1cccc(CCN2Cc3nccc(N4CCOCC4)c3C2=O)n1 | < 100 µL/min/mg
* O=C1c2c(cccc2N2CC[S+]([O-])CC2)CN1CCc1ccc2ccccc2n1 | < 100 µL/min/mg
* O=C1c2cccc(-c3cscn3)c2CN1CCc1cn2ccccc2n1 | < 100 µL/min/mg

Task: Fill in: microsomal CLint at 0.5 μM of COCC1CN(c2cccc3c2C(=O)N(CCc2ccc4ccccc4n2)C3)CCO1 (centres unmarked) is ___
Output: 100 to 220 µL/min/mg

Task: Suppose we examine the molecule CN1CC2CN(c3cccc4c3C(=O)N(CCc3ccc5ccccc5n3)C4)CC2C1 (centres unmarked) ; what microsomal CLint at 0.5 μM value has been reported?
Output: < 100 µL/min/mg

Task: What value of measured microsomal CLint at 0.5 μM is listed for "O=C1Cc2ccc(-c3cccc4c3C(=O)N(CCc3cn5ccccc5n3)C4)cc2N1" ?
Output: < 100 µL/min/mg

Task: Query (molecule): "O=C1c2c(cccc2NC2COC2)CN1CCc1ccc2ccccc2n1" ; field requested: microsomal CLint at 0.5 μM
Output: 100 to 220 µL/min/mg

The reported measurements were obtained from patent US9938269B2.
